# system tested: human TRPA1 (Homo sapiens, UniProt O75762)
# Construct: expressed in transfected cells; host or cells: CHO cells
# Sequence (O75762 whole entry): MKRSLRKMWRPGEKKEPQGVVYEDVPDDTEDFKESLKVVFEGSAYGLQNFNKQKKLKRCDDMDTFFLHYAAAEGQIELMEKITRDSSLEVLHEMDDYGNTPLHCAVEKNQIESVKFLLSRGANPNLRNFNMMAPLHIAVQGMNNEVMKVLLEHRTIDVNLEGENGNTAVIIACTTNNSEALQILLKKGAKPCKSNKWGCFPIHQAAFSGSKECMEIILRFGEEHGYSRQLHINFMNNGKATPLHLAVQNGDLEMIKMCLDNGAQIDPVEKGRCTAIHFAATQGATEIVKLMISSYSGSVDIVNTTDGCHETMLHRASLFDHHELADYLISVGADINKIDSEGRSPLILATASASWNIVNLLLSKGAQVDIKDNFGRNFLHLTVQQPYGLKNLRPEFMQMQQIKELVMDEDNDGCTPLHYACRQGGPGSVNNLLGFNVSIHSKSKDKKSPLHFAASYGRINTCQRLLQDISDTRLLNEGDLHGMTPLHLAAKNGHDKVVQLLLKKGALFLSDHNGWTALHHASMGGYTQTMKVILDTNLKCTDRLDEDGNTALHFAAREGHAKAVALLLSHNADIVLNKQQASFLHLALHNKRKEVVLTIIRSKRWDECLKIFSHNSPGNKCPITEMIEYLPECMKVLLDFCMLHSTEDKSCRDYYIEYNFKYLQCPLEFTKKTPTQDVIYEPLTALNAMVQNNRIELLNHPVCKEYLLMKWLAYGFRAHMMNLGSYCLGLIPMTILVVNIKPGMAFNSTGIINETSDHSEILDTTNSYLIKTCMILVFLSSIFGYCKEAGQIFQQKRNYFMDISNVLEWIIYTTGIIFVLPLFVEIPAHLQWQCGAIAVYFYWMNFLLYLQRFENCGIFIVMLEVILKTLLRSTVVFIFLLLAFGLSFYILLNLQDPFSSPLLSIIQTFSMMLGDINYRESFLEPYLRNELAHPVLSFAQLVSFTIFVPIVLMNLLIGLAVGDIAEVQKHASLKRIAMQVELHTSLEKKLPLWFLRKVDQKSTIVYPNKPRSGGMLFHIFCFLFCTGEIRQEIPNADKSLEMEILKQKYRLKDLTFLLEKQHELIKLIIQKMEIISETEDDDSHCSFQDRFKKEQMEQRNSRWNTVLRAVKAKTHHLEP
# test description: TRPA1 FLIPR Tetra calcium influx assay in CHO cells (block of cinnamaldehyde-induced calcium influx)
# Type: cell-based
# measurement context: Table 2; CHO cells expressing TRPA1; agonist cinnamaldehyde 75 uM; 20 min compound incubation; Hill coefficient fixed to 1.5; read-out: hTRPA1 CHO Ca2+ AUC EVO (IC50)
pIC50: −log10 of the molar value.
measured attribute: pIC50

>>> assay_value("C[C@H]1[C@H](F)C[C@@H](C(=O)NCc2cn(-c3cnc(C(F)(F)F)nc3)nc2Cl)N1S(=O)(=O)c1ccc(F)cc1")
7.24

(I) C[C@H]1[C@H](F)C[C@@H](C(=O)NCc2cc(OC[C@@H]3C[C@H]3C(F)(F)F)nc(C3CC3)n2)N1S(=O)(=O)c1ccc(F)cc1
(II) C[C@H]1[C@H](F)C[C@@H](C(=O)NCc2cc(-c3cnc(C(F)(F)F)nc3)ncc2F)N1S(=O)(=O)c1ccccc1
Which of the two items, I and II , has the greater recorded pIC50? Please reply using the label of the selected record.
I
